# Test system: Fusarium oxysporum
# measurementProtocol: Antifungal activity against Fusarium oxysporum assessed as mycelial growth inhibition at 1000 ppm at 28 +/-2 degC after 7 days by food poison technique
# Format: functional
# experimentalSetup: 168 h, read-out: GI
measuredMetric: inhibition of growth at 1000 ppm (%)
Respond with the bare value in %.

Task: Would you kindly share the measured inhibition of growth at 1000 ppm for "CCOP(=O)(OCC)O/C(COc1ccccc1P(=O)(OCC)OCC)=N\N=C1/C(=O)Nc2ccccc21" ?
Output: 74.2

Task: What inhibition of growth at 1000 ppm value was documented for this compound, "CCOP(=S)(OCC)O/C(=N\N=C1/C(=O)Nc2ccccc21)c1ccc(OP(=S)(OCC)OCC)cc1" ?
Output: 82.4

Task: Given the compound "CCOP(=O)(OCC)O/C(COc1ccc(Cl)cc1)=N\N=C1/C(=O)Nc2ccccc21" , what is its reported inhibition of growth at 1000 ppm?
Output: 85.6

Task: # inhibition of growth at 1000 ppm lookup, item "CCOP(=S)(OCC)O/C(COc1ccc([N+](=O)[O-])cc1)=N\N=C1/C(=O)Nc2ccccc21"
Output: 67.8

Task: Given the compound "CCOP(=S)(OCC)O/C(COc1ccc(Cl)cc1)=N\N=C1/C(=O)Nc2ccccc21" , what is its reported inhibition of growth at 1000 ppm?
Output: 100

====

# Test system: Colletotrichum falcatum
# measurementProtocol: Antifungal activity against Glomerella tucumanensis assessed as mycelial growth inhibition at 10 ppm at 28 +/-2 degC after 7 days by food poison technique
# Assay type: functional
# experimentalSetup: 168 h, read-out: GI
measuredMetric: inhibition of growth at 10 ppm (%)
# output: bare number, implied unit %

Task: Please give the measured inhibition of growth at 10 ppm for this compound: "CCOP(=S)(OCC)O/C(COc1ccc(Cl)cc1)=N\N=C1/C(=O)Nc2ccccc21"
Output: 80.5

Task: Return reported inhibition of growth at 10 ppm; argument: "CCOP(=S)(OCC)O/C(=N\N=C1/C(=O)Nc2ccccc21)c1ccc(OP(=S)(OCC)OCC)cc1"
Output: 58.2

Task: // inhibition of growth at 10 ppm lookup, key: "CCOP(=O)(OCC)O/C(=N\N=C1/C(=O)Nc2ccccc21)c1ccc(OP(=O)(OCC)OCC)cc1"
Output: 52.3

Task: Which inhibition of growth at 10 ppm is listed for "CCOP(=O)(OCC)O/C(=N\N=C1/C(=O)Nc2ccccc21)c1ccccc1P(=O)(OCC)OCC" ?
Output: 51.5

Task: Returns the measured inhibition of growth at 10 ppm for the input compound. Input: "CCOP(=O)(OCC)O/C(COc1ccc([N+](=O)[O-])cc1)=N\N=C1/C(=O)Nc2ccccc21"
Output: 38.6

Task: Form field: reported inhibition of growth at 10 ppm of "CCOP(=O)(OCC)O/C(COc1ccc(Cl)cc1)=N\N=C1/C(=O)Nc2ccccc21"
Output: 64.8

Task: Which inhibition of growth at 10 ppm is listed for "CCOP(=O)(OCC)O/C(COc1ccc(OP(=O)(OCC)OCC)cc1)=N\N=C1/C(=O)Nc2ccccc21" ?
Output: 61.5

Task: For the compound "CCOP(=S)(OCC)O/C(COc1ccc([N+](=O)[O-])cc1)=N\N=C1/C(=O)Nc2ccccc21" , what inhibition of growth at 10 ppm is on record?
Output: 48.2

Task: I have this compound here, "CCOP(=S)(OCC)O/C(COc1ccc(OP(=S)(OCC)OCC)cc1)=N\N=C1/C(=O)Nc2ccccc21" , and I need its recorded inhibition of growth at 10 ppm.
Output: 75.1

====

For each entry below, report its inhibition of growth at 100 ppm value.
# Test system: Fusarium oxysporum
# measurementProtocol: Antifungal activity against Fusarium oxysporum assessed as mycelial growth inhibition at 100 ppm at 28 +/-2 degC after 7 days by food poison technique
# Assay type: functional
# experimentalSetup: 168 h, read-out: GI
Only the number, expressed in %, is required.

Task: Which inhibition of growth at 100 ppm is listed for "CCOP(=S)(OCC)O/C(=N\N=C1/C(=O)Nc2ccccc21)c1ccc(Cl)cc1" ?
Output: 78.2

Task: Suppose we examine the molecule "CCOP(=S)(OCC)O/C(COc1ccccc1P(=S)(OCC)OCC)=N\N=C1/C(=O)Nc2ccccc21" ; what inhibition of growth at 100 ppm value has been reported?
Output: 80

Task: Dear colleague, I am looking for the recorded inhibition of growth at 100 ppm of the following molecule: "CCOP(=S)(OCC)O/C(=N\N=C1/C(=O)Nc2ccccc21)c1ccccc1"
Output: 69.2

Task: Can you look up the measured inhibition of growth at 100 ppm of "CCOP(=O)(OCC)O/C(COc1ccc(OP(=O)(OCC)OCC)cc1)=N\N=C1/C(=O)Nc2ccccc21" for me?
Output: 69.2

Task: Any idea what inhibition of growth at 100 ppm was measured for "CCOP(=S)(OCC)O/C(COc1ccc(OP(=S)(OCC)OCC)cc1)=N\N=C1/C(=O)Nc2ccccc21" ?
Output: 82.6

Task: Reported inhibition of growth at 100 ppm for "CCOP(=O)(OCC)O/C(=N\N=C1/C(=O)Nc2ccccc21)c1ccc(OP(=O)(OCC)OCC)cc1" : what is it?
Output: 58

Task: Can you look up the measured inhibition of growth at 100 ppm of "CCOP(=S)(OCC)O/C(=N\N=C1/C(=O)Nc2ccccc21)c1ccc(OP(=S)(OCC)OCC)cc1" for me?
Output: 68.2

Task: Quick one: inhibition of growth at 100 ppm of "CCOP(=O)(OCC)O/C(=N\N=C1/C(=O)Nc2ccccc21)c1ccccc1" ?
Output: 50.4

Task: Value lookup for inhibition of growth at 100 ppm; key = "CCOP(=O)(OCC)O/C(=N\N=C1/C(=O)Nc2ccccc21)c1ccc(Cl)cc1"
Output: 67.8

====

# System: Colletotrichum falcatum
# measurementProtocol: Antifungal activity against Glomerella tucumanensis assessed as mycelial growth inhibition at 28 +/-2 degC after 7 days by food poison technique
# Format: functional
# experimentalSetup: 168 h
measuredMetric: MIC (µg/mL)
Please respond with the number in µg/mL and leave the unit unwritten.

Task: I have this compound here, "COC(=O)Nc1nc2ccccc2[nH]1" , and I need its recorded MIC.
Output: 4000

Task: GET /values?readout=MIC&item= "CCOP(=S)(OCC)O/C(COc1ccc(OP(=S)(OCC)OCC)cc1)=N\N=C1/C(=O)Nc2ccccc21"
Output: 1000

Task: Name the reported MIC value associated with the compound "CCOP(=S)(OCC)O/C(COc1ccc(Cl)cc1)=N\N=C1/C(=O)Nc2ccccc21"
Output: 1000

Task: Using the record for COC(=O)NC(=S)Nc1ccccc1NC(=S)NC(=O)OC [THIOPHANATE METHYL] , report its MIC.
Output: 4000

====

# Tested on: Curvularia pallescens
# measurementProtocol: Antifungal activity against Cochliobolus pallescens assessed as mycelial growth inhibition at 1000 ppm at 28 +/-2 degC after 7 days by food poison technique
# Assay type: functional
# experimentalSetup: 168 h, read-out: GI
For each record, write down the corresponding inhibition of growth at 1000 ppm.
Express the result in % but write the number alone.

Task: So what's the measured inhibition of growth at 1000 ppm for this one? "CCOP(=S)(OCC)O/C(=N\N=C1/C(=O)Nc2ccccc21)c1ccccc1"
Output: 73.5

Task: Consider the compound "CCOP(=O)(OCC)O/C(COc1ccc([N+](=O)[O-])cc1)=N\N=C1/C(=O)Nc2ccccc21" and give its measured inhibition of growth at 1000 ppm.
Output: 55.6

Task: Given the compound "CCOP(=S)(OCC)O/C(=N\N=C1/C(=O)Nc2ccccc21)c1ccc(Cl)cc1" , what is its reported inhibition of growth at 1000 ppm?
Output: 85.8

Task: Reported inhibition of growth at 1000 ppm for "CCOP(=O)(OCC)O/C(=N\N=C1/C(=O)Nc2ccccc21)c1ccccc1" : what is it?
Output: 59.8

Task: Would you mind telling me what inhibition of growth at 1000 ppm value was observed for "CCOP(=O)(OCC)O/C(=N\N=C1/C(=O)Nc2ccccc21)c1ccccc1P(=O)(OCC)OCC" ?
Output: 65.6

====

Answer each item with its documented MIC.
# Test system: Fusarium oxysporum
# measurementProtocol: Antifungal activity against Fusarium oxysporum assessed as mycelial growth inhibition at 28 +/-2 degC after 7 days by food poison technique
# Assay type: functional
# experimentalSetup: 168 h
Please reply with the bare figure in µg/mL and do not write the unit itself.

Task: Look up MIC: COC(=O)NC(=S)Nc1ccccc1NC(=S)NC(=O)OC [THIOPHANATE METHYL]
Output: 4000

Task: Given the compound "CCOP(=S)(OCC)O/C(COc1ccc(OP(=S)(OCC)OCC)cc1)=N\N=C1/C(=O)Nc2ccccc21" , what is its reported MIC?
Output: 1000

Task: Which MIC is reported for this compound? "COC(=O)Nc1nc2ccccc2[nH]1"
Output: 3000

Task: Param item = "CCOP(=S)(OCC)O/C(COc1ccc(Cl)cc1)=N\N=C1/C(=O)Nc2ccccc21" ; retrieve measured MIC.
Output: 1000
